Kindly supply the reported inhibition values for the records listed here.
molecular target: Aldo-keto reductase family 1 member A1 (Rattus norvegicus) (UniProt P51635); assay: Inhibition of Fischer-344 rat kidney ALR1 using D-glycuronate as substrate at 10' -5 M by spectrophotometry
Sequence (P51635 whole entry, looked up): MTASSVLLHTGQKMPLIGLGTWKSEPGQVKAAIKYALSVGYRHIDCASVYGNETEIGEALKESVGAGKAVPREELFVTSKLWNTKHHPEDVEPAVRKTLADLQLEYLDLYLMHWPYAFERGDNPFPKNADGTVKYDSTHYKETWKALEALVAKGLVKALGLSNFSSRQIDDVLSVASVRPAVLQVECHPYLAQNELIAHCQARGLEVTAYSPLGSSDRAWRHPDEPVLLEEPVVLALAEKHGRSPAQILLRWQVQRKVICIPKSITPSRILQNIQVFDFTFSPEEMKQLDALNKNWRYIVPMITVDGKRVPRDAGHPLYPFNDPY
Answers are plain numbers, in %.

Look over these answered cases.
structure	measuredTarget	inhibition, %
O=C(c1ccc(-c2ccccc2)cc1)c1ccn(-c2cc(F)c(O)c(F)c2)c1	Aldo-keto reductase family 1 member A1 (Rattus norvegicus) (UniProt P51635)	72.8
O=C(c1ccc(OC(F)(F)F)cc1)c1cccn1-c1cc(F)c(O)c(F)c1	Aldo-keto reductase family 1 member A1 (Rattus norvegicus) (UniProt P51635)	30.9
O=C(c1ccc(-c2ccccc2)cc1)c1cccn1-c1cc(F)c(O)c(F)c1	Aldo-keto reductase family 1 member A1 (Rattus norvegicus) (UniProt P51635)	5.85
O=C(c1ccc(Br)cc1F)c1cccn1-c1cc(F)c(O)c(F)c1	Aldo-keto reductase family 1 member A1 (Rattus norvegicus) (UniProt P51635)	96.8

Quick request: inhibition for each listed item, please.
1. O=C(c1ccc(OC(F)(F)F)cc1)c1ccn(-c2cc(F)c(O)c(F)c2)c1
2. O=C(c1cccn1-c1cc(F)c(O)c(F)c1)C(F)(F)F

Result:
38
26.5

###

species on record: Rattus norvegicus; test: Selectivity index, ratio of IC50 for Fischer-344 rat kidney ALR1 to IC50 for Fischer-344 rat lens ALR2; assay type: tissue-based; settings: Lens of camera-type eye
assayEndpoint: Ratio IC50
Numbers only.

structure	testValue
O=C(c1ccc(-c2ccccc2)cc1)c1cccn1-c1cc(F)c(O)c(F)c1	238
O=C(c1ccc(Br)cc1F)c1cccn1-c1cc(F)c(O)c(F)c1	1
O=C(c1ccc(OC(F)(F)F)cc1)c1ccn(-c2cc(F)c(O)c(F)c2)c1	17.5
O=C(c1cccn1-c1cc(F)c(O)c(F)c1)C(F)(F)F	20.3
O=C(c1ccc(-c2ccccc2)cc1)c1ccn(-c2cc(F)c(O)c(F)c2)c1	1.87

Switching to the query record.
Q: Tell me the measured Ratio IC50 of `O=C(c1ccc(OC(F)(F)F)cc1)c1cccn1-c1cc(F)c(O)c(F)c1` , please.
Result: 31.1

###

biological target: Aldo-keto reductase family 1 member B1 (Rattus norvegicus)
Please respond with yes (1) when measured IC50 is strictly beneath 500 nM, and with no (0) in all other cases.

Answered cases to consult:
structure	category
O=C(c1ccc(OC(F)(F)F)cc1)c1cccn1-c1cc(F)c(O)c(F)c1	no (0)
O=C(c1ccc(-c2ccccc2)cc1)c1ccn(-c2cc(F)c(O)c(F)c2)c1	no (0)
O=C(c1ccn(-c2cc(F)c(O)c(F)c2)c1)c1ccc(Br)cc1F	yes (1)
O=C(c1cccn1-c1cc(F)c(O)c(F)c1)C(F)(F)F	no (0)

# next molecule below
Q: # strict comparison: is reported IC50 < 500 nM? input = `O=C(c1ccc(OC(F)(F)F)cc1)c1ccn(-c2cc(F)c(O)c(F)c2)c1`
Result: no (0)

###

biological target: UniProt P51635
assayEndpoint: IC50 (µM)
One number for each entry, in µM.

Look over these answered cases.
structure	unitName	IC50
O=C(c1ccc(-c2ccccc2)cc1)c1ccn(-c2cc(F)c(O)c(F)c2)c1	µM	5.63
O=C(c1ccc(-c2ccccc2)cc1)c1cccn1-c1cc(F)c(O)c(F)c1	µM	121
O=C(c1ccc(OC(F)(F)F)cc1)c1ccn(-c2cc(F)c(O)c(F)c2)c1	µM	13.1

Switching to the query record.
Q: Tell me the measured IC50 of `O=C(c1ccc(Br)cc1F)c1cccn1-c1cc(F)c(O)c(F)c1` , please.
Result: 0.19
